- target_under_test: Cathepsin B (Homo sapiens, UniProt P07858)
- test_method_notes: Inhibition of human recombinant cathepsin B
Recorded IC50, one value per entry.
observation_type: IC50 (nM)

[
  {
    "molecule": "O=C1O[C@@H]2CN1CC[C@@H]2OCc1ccccc1",
    "units_of_measure": "nM",
    "limit_qualifier": "=",
    "reported_result": 2
  },
  {
    "molecule": "Cc1cccc(O[C@@H]2CCNC[C@@H]2O)c1C",
    "units_of_measure": "nM",
    "limit_qualifier": ">",
    "reported_result": 100000
  },
  {
    "molecule": "Cc1cccc(OCC2CN(C)C(=O)O2)c1C (stereo not given)",
    "units_of_measure": "nM",
    "limit_qualifier": ">",
    "reported_result": 100000
  },
  {
    "molecule": "CC(C)CO[C@H]1CCN2C[C@H]1OC2=O",
    "units_of_measure": "nM",
    "limit_qualifier": "=",
    "reported_result": 8
  },
  {
    "molecule": "O=C1O[C@@H]2CN1CC[C@@H]2Oc1ccccc1",
    "units_of_measure": "nM",
    "limit_qualifier": "=",
    "reported_result": 5
  },
  {
    "molecule": "Cc1cccc(O[C@H]2CCN3C[C@H]2OC3=O)c1C (relative stereo)",
    "units_of_measure": "nM",
    "limit_qualifier": "=",
    "reported_result": 1
  },
  {
    "molecule": "S=C1O[C@@H]2CN1CC[C@@H]2Oc1ccccc1",
    "units_of_measure": "nM",
    "limit_qualifier": "=",
    "reported_result": 519
  },
  {
    "molecule": "O=C1O[C@H]2CN1CC[C@@H]2Br",
    "units_of_measure": "nM",
    "limit_qualifier": "=",
    "reported_result": 158
  },
  {
    "molecule": "Cc1cccc(O[C@@H]2CCNC[C@H]2O)c1C",
    "units_of_measure": "nM",
    "limit_qualifier": ">",
    "reported_result": 100000
  },
  {
    "molecule": "Cc1cccc(O[C@H]2CCN3C[C@@H]2OC3=O)c1C (racemic)",
    "units_of_measure": "nM",
    "limit_qualifier": "=",
    "reported_result": 46
  }
]

----------
Recorded IC50, one value per entry.
- target_under_test: Dipeptidyl peptidase 1 (Homo sapiens, UniProt P53634)
- Sequence (P53634 25-134 limits assumed): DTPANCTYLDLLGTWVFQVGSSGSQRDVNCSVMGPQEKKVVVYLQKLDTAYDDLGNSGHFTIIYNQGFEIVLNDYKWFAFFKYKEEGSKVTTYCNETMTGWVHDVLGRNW
- Sequence (P53634 231-394 limits assumed): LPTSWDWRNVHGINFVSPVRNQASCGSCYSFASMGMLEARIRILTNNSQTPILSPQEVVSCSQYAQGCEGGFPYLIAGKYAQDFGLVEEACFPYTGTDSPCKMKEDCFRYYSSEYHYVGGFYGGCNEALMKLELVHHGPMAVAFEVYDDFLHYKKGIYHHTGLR
- Sequence (P53634 395-463 limits assumed): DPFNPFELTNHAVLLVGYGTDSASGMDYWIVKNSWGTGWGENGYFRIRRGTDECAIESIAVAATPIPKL
- test_method_notes: Inhibition of human recombinant cathepsin C

[
  {
    "compound": "Cc1cccc(O[C@@H]2CCNC[C@H]2O)c1C",
    "IC50": "> 100 µM"
  },
  {
    "compound": "O=C1O[C@H]2CN1CC[C@@H]2Br",
    "IC50": "> 10 µM"
  },
  {
    "compound": "Cc1cccc(OCC2CN(C)C(=O)O2)c1C (centres undefined)",
    "IC50": "> 100 µM"
  },
  {
    "compound": "Cc1cccc(O[C@@H]2CCNC[C@@H]2O)c1C",
    "IC50": "> 100 µM"
  }
]

----------
- target_under_test: Cathepsin S (Homo sapiens, UniProt P25774)
- Sequence (P25774 whole entry): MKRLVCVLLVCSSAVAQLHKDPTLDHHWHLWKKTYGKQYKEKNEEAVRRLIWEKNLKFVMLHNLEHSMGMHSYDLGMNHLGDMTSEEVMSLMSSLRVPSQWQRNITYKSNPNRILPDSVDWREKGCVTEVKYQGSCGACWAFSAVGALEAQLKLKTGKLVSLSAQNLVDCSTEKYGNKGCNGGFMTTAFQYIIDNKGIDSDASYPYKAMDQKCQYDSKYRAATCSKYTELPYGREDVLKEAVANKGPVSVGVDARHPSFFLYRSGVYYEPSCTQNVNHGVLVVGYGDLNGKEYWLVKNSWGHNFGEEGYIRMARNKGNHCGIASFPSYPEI
- test_method_notes: Inhibition of human recombinant cathepsin S
Recorded IC50, one value per entry.

[
  {
    "compound": "Cc1cccc(OCC2CN(C)C(=O)O2)c1C (stereo not drawn)",
    "IC50": "> 100 µM"
  },
  {
    "compound": "Cc1cccc(O[C@@H]2CCNC[C@H]2O)c1C",
    "IC50": "> 100 µM"
  },
  {
    "compound": "Cc1cccc(O[C@@H]2CCNC[C@@H]2O)c1C",
    "IC50": "> 100 µM"
  }
]

Where these numbers come from: ChEMBL document CHEMBL1144593
